# measurement-notes: clinical
# condition-details: human, in vivo
measured-parameter: Tmax (h)
Field format: number, assumed h, no unit text.

- compound: "CCOC(=O)OC[C@H]1O[C@@H](Oc2nn(C(C)C)c(C)c2Cc2ccc(OC(C)C)cc2)[C@H](O)[C@@H](O)[C@@H]1O [Remogliflozin etabonate]"
  measured-parameter: "Tmax"
  endpoint-unit: "h"
  observed-value: 3

Turning now to a further record.
INPUT: What value of measured Tmax is listed for Cc1c(Cc2ccc(OC(C)C)cc2)c(O[C@@H]2O[C@H](CO)[C@@H](O)[C@H](O)[C@H]2O)nn1C(C)C ?
OUTPUT: 3

###

# measurement-notes: clinical
# condition-details: human, in vivo, AUC(0–last)
measured-parameter: AUC(0-t)

INPUT: What value of measured AUC(0-t) is listed for CCOC(=O)OC[C@H]1O[C@@H](Oc2nn(C(C)C)c(C)c2Cc2ccc(OC(C)C)cc2)[C@H](O)[C@@H](O)[C@@H]1O [Remogliflozin etabonate] ?
OUTPUT: 0.0989 µg·h/mL
